B1: F-BAR and double SH3 domains protein 1, residues 467 to 528; numbered along this chain, Q86WN1 (parent)
chain: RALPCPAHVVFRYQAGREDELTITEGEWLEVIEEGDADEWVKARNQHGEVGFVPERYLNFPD

# Variants of: B1
# measurementProtocol: abundance fitness (aPCA) (normalised: wild type 0, dead -1); higher = more abundant; growth selection in yeast, the domain comes from the species named
# conditionInfo: Homo sapiens
# if value of abundance fitness reaches -0.3, tag label 1; if it stays below, tag label 0

Ask | Is it the case that T24H has abundance fitness reaching or exceeding -0.3?
Reply | label 1

Ask | Does V31P have a reported abundance fitness of at least -0.3?
Reply | label 0

Ask | abundance fitness >= -0.3 for D19F ?
Reply | label 1

Ask | Hello, I need to know if E25K has measured abundance fitness not below -0.3. Thanks!
Reply | label 1

Ask | Hi team, for E18P , is the recorded abundance fitness at or above -0.3?
Reply | label 1

Ask | Has A2D a recorded abundance fitness greater than or equal to -0.3?
Reply | label 1

Ask | Does the variant F11E have recorded abundance fitness that is -0.3 or more?
Reply | label 1

Ask | abundance fitness >= -0.3 for C5D ?
Reply | label 0

Ask | Determine whether this variant has abundance fitness no lower than -0.3: G26R
Reply | label 0
